measured property: melting point

Cn1nc(C(F)(F)F)c(C(=O)Nc2ccccc2-c2ccc(C(F)(F)F)cc2)c1F [No. I.3]: 170 to 173 °C

Which melting point value belongs to Cn1nc(Cl)c(C(=O)Nc2ccccc2-c2ccc(C(F)(F)F)cc2)c1C(F)F [No. I.8] ?
193 to 196 °C

Which melting point value belongs to Cn1cc(C(=O)Nc2ccccc2-c2ccc(C(F)(F)F)cc2)c(C(F)(F)F)n1 [No. I.1] ?
175 to 177 °C

Which melting point value belongs to Cn1cc(C(=O)Nc2ccccc2-c2ccc(C(F)(F)F)cc2)c(C(F)F)n1 [No. I.2] ?
164 to 165 °C

Which melting point value belongs to Cc1nn(C)cc1C(=O)Nc1ccccc1-c1ccc(C(F)(F)F)cc1 [No. I.6] ?
174 to 177 °C

Which melting point value belongs to Cc1nn(C)c(Cl)c1C(=O)Nc1ccccc1-c1ccc(C(F)(F)F)cc1 [No. I.5] ?
173 to 175 °C

Which melting point value belongs to Cn1cc(C(=O)Nc2ccccc2-c2ccc(C(F)(F)F)cc2)c(CF)n1 [No. I.7] ?
156 to 158 °C
